Source of measurements: the Human Domainome abundance scans (Beltran et al. 2025)

B1: Intersectin-2, residues 1129 to 1183; numbered along this chain, Q9NZM3 (parent)
chain: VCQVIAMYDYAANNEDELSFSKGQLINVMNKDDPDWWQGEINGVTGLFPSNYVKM

# Variants of: B1
# procedure.text: abundance fitness (aPCA) (normalised: wild type 0, dead -1); higher = more abundant; growth selection in yeast, the domain comes from the species named
# conditions: Homo sapiens
Classification by abundance fitness follows these ranges: low bin = under -0.1, mid bin = from -0.1 up to -0.04, high bin = -0.04 and over

Qu. Any idea which band VCQVIAMYDYAANNEDELSFSKGQFINVMNKDDPDWWQGEINGVTGLFPSNYVKM is in?
Ans. high bin

Qu. What do you have for VCQVIAMYDSAANNEDELSFSKGQLINVMNKDDPDWWQGEINGVTGLFPSNYVKM ?
Ans. low bin

Qu. Next: VCQVIAMYDYAANNEDELSFSKGQLINVMNKDDPDWWQGEINGVTGLFPGNYVKM
Ans. low bin

Qu. Try VCQVIAMYDYAANNEDELSFSKGQLINVMNKDDPDWWAGEINGVTGLFPSNYVKM next.
Ans. high bin

Qu. Field entry: VCQVIAMYDYAANNEDELQFSKGQLINVMNKDDPDWWQGEINGVTGLFPSNYVKM
Ans. low bin

Qu. What do you have for VCQVIAMYDYAANNEDEMSFSKGQLINVMNKDDPDWWQGEINGVTGLFPSNYVKM ?
Ans. mid bin

Qu. Follow-up entry: VCQVIAMYDYAANNEDELSFSKGQLINVMNKDDPDWWQGEINGVTALFPSNYVKM
Ans. low bin

Qu. Param item: VCQVIAMYDYAANNEDELSFSKGQLINVMNKDDPDWWQFEINGVTGLFPSNYVKM
Ans. low bin

Qu. # iterate: VCQVIAMYDYAAMNEDELSFSKGQLINVMNKDDPDWWQGEINGVTGLFPSNYVKM
Ans. high bin

Qu. Now the same for VCQVIAMYDYAANNEDELSFSKGQLISVMNKDDPDWWQGEINGVTGLFPSNYVKM
Ans. mid bin

Qu. Further, for VCQVIAVYDYAANNEDELSFSKGQLINVMNKDDPDWWQGEINGVTGLFPSNYVKM ?
Ans. mid bin

Qu. Repeat with VCQVIAMYDYAANNEDELSFSKGQLINVMNKDDPDYWQGEINGVTGLFPSNYVKM
Ans. mid bin

Qu. Same thing, different variant: VCQVIAMYDYAANNEDELSFSKGQLINVMDKDDPDWWQGEINGVTGLFPSNYVKM
Ans. mid bin

Qu. Next entry: VCQVIWMYDYAANNEDELSFSKGQLINVMNKDDPDWWQGEINGVTGLFPSNYVKM
Ans. low bin

Qu. Would you kindly repeat that for VCQVIAMYDYAANNEDELSFSKGQLINVMNKDDPDWWQGEINGVTGLFTSNYVKM ?
Ans. low bin

Qu. Lookup VCQVIAMYDYAANNEDRLSFSKGQLINVMNKDDPDWWQGEINGVTGLFPSNYVKM
Ans. high bin

Qu. Now consider VCQVIAMYDYAANNEDELSFSKGQLINVMHKDDPDWWQGEINGVTGLFPSNYVKM and answer again.
Ans. high bin

Qu. Note, next up: VCQVIAMYDYAANNEDELSFSKGQLINVMNKDDPDWWKGEINGVTGLFPSNYVKM
Ans. high bin

Qu. Quick one: VCQVIAMYDYAANNEDELSLSKGQLINVMNKDDPDWWQGEINGVTGLFPSNYVKM
Ans. mid bin

Qu. Also VCQVIAMYDYAANNELELSFSKGQLINVMNKDDPDWWQGEINGVTGLFPSNYVKM ?
Ans. high bin

Qu. Next entry: VCQVIAMYDYAAKNEDELSFSKGQLINVMNKDDPDWWQGEINGVTGLFPSNYVKM
Ans. high bin

Qu. And then VCQVIAMYDYANNNEDELSFSKGQLINVMNKDDPDWWQGEINGVTGLFPSNYVKM , what is it?
Ans. high bin

Qu. Similarly, VCQVIAMYDYAANNEDELSFSKGQLINVNNKDDPDWWQGEINGVTGLFPSNYVKM ?
Ans. low bin

Qu. How about VCQVIAMYDYAANNEDELSFSKGQLINVMNGDDPDWWQGEINGVTGLFPSNYVKM ?
Ans. high bin

Qu. How about VCQVIAMYDYAANNEDELSFSKGQLINVMNKDDPDWWQGCINGVTGLFPSNYVKM ?
Ans. high bin

Qu. Record: VCQVIAMYDYAANNEDELSFSKGRLINVMNKDDPDWWQGEINGVTGLFPSNYVKM
Ans. low bin

Qu. Field entry: VCQVIAMYDYAANNEDELSFSKGQLINVMNKDDPDWWQGEINGVTGLFPSNHVKM
Ans. high bin

Qu. Would you kindly repeat that for VCQVIAMYDYAANNEDELSFSKGQLINVMNKDDPDWWQGEINGVTGLFPSNYVKT ?
Ans. mid bin

Qu. Now try VCQVIAMYDYAANNEDELSFSKGQLINVMNKDDPDWWQGEINGVTGLFMSNYVKM .
Ans. mid bin

Qu. Item: VCQVIAMYDYAANNEDELSFSKGQLINVMNKDDPDWWQGEINAVTGLFPSNYVKM
Ans. mid bin

Qu. Try this variant too: VCQVIAMYDYAANNEDELSFSKGQLIKVMNKDDPDWWQGEINGVTGLFPSNYVKM
Ans. mid bin

Qu. Further, for VCQVIAMYDYAANNEDELSFSKGQLIEVMNKDDPDWWQGEINGVTGLFPSNYVKM ?
Ans. high bin

Qu. // next record VCQVIAMYDYAANNEDELSFSKGQLINVMTKDDPDWWQGEINGVTGLFPSNYVKM
Ans. high bin

Qu. Try the variant VCQVIYMYDYAANNEDELSFSKGQLINVMNKDDPDWWQGEINGVTGLFPSNYVKM
Ans. low bin

Qu. Now the same for VCQVIAMYDYAANNEDELSFSKGQLINVKNKDDPDWWQGEINGVTGLFPSNYVKM
Ans. mid bin

Qu. # repeat for VCQVIAMYDYAANNEDELSFRKGQLINVMNKDDPDWWQGEINGVTGLFPSNYVKM
Ans. high bin

Qu. Field entry: VCQVIAMYDYAANNEDELSFSKGQLINVMNKDDPDWWQGEINGVTGLFPSNYKKM
Ans. low bin

Qu. Would you mind doing VCQVIAMYDYAANNEDELSFSKGQLINVCNKDDPDWWQGEINGVTGLFPSNYVKM as well?
Ans. high bin

Qu. Next up: VCQVIAMYDYAANNEDELSFSKGQLINVMNKDDPDWWLGEINGVTGLFPSNYVKM
Ans. mid bin

Qu. What do you have for VCQVIAMYDYAANNEDELSFSKGQLINVMNKDDPDWWEGEINGVTGLFPSNYVKM ?
Ans. high bin

Qu. Query VFQVIAMYDYAANNEDELSFSKGQLINVMNKDDPDWWQGEINGVTGLFPSNYVKM next
Ans. high bin

Qu. Let us now turn to VCQVIAMYDYAANNEDELSFSKGQLIPVMNKDDPDWWQGEINGVTGLFPSNYVKM
Ans. low bin

Qu. Likewise for VCQVIAMYDYAANNEDELSFSKGQLINVMNKDDPDWWQGKINGVTGLFPSNYVKM ?
Ans. high bin

Qu. Also VCQVIAMYDYAANNEDELSFSKGQLINVMNKDDPDWWQGEANGVTGLFPSNYVKM ?
Ans. high bin

Qu. Okay, and VCQVIAMYDYAANNEDELSFSKGQLINVMNKDDPDWWQGEINGVTGLFPSNYVKK ?
Ans. low bin

Qu. Repeat with VCQVIAMYDYAANNEDELSFSKGQLYNVMNKDDPDWWQGEINGVTGLFPSNYVKM
Ans. low bin

Qu. Now give it for VCQVIAMYDYAANNEDELSFSKGQLINVMNKDDPDWWQGEINGHTGLFPSNYVKM too.
Ans. high bin

Qu. Try this variant too: VCQVIAMYDYAANNEDELNFSKGQLINVMNKDDPDWWQGEINGVTGLFPSNYVKM
Ans. mid bin

Qu. // same read-out, input: VCQVIAMYDYAANNEDELSFSKGQLINVMNKDDPDWWQGEINGVTGLFPCNYVKM
Ans. low bin

Qu. Again, but for VCQVIAMYDYAANPEDELSFSKGQLINVMNKDDPDWWQGEINGVTGLFPSNYVKM
Ans. low bin

Qu. Also VCQVIAMYDYAANNEDELKFSKGQLINVMNKDDPDWWQGEINGVTGLFPSNYVKM ?
Ans. low bin

Qu. How about this variant: VCQVIAMYDYAANNEDELSFSKGQLINVMNKDDPDWSQGEINGVTGLFPSNYVKM
Ans. low bin

Qu. Continue with VCQVIAMYDYAANNEDELSFSKIQLINVMNKDDPDWWQGEINGVTGLFPSNYVKM
Ans. low bin

Qu. Check VCQVIAMYDRAANNEDELSFSKGQLINVMNKDDPDWWQGEINGVTGLFPSNYVKM too.
Ans. mid bin

Qu. // query: VCKVIAMYDYAANNEDELSFSKGQLINVMNKDDPDWWQGEINGVTGLFPSNYVKM
Ans. high bin

Qu. Please give the result for VCQVIAMYDYAANCEDELSFSKGQLINVMNKDDPDWWQGEINGVTGLFPSNYVKM too.
Ans. high bin

Qu. How about VCQVIAMYDYAANNEDELSFSKGQLINKMNKDDPDWWQGEINGVTGLFPSNYVKM ?
Ans. low bin

Qu. Next entry: VCQVIAMYDYAANNEDELSFSKGQLINVMNKDDPDWWQGEINGVTGLFPSCYVKM
Ans. mid bin

Qu. Proceed to VCQVPAMYDYAANNEDELSFSKGQLINVMNKDDPDWWQGEINGVTGLFPSNYVKM
Ans. low bin

Qu. Same for VCQVIAMYYYAANNEDELSFSKGQLINVMNKDDPDWWQGEINGVTGLFPSNYVKM
Ans. low bin

Qu. What would you report for VCQVIAMYDYAANFEDELSFSKGQLINVMNKDDPDWWQGEINGVTGLFPSNYVKM ?
Ans. mid bin

Qu. VCQVIAMYDYAANNEDELSFSKGQLINVMNKDDPDWWQGEIDGVTGLFPSNYVKM , same question.
Ans. low bin

Qu. And for VCQVIAIYDYAANNEDELSFSKGQLINVMNKDDPDWWQGEINGVTGLFPSNYVKM ?
Ans. high bin

Qu. Now the variant VCQVIAMYDYAANNEDELSFSKGQLINVDNKDDPDWWQGEINGVTGLFPSNYVKM
Ans. mid bin

Qu. Now consider VCQVIAMYDYAANNEDELSFSKGQLINVMNKRDPDWWQGEINGVTGLFPSNYVKM and answer again.
Ans. mid bin

Qu. What about this variant? VCQVIAMYDYAAGNEDELSFSKGQLINVMNKDDPDWWQGEINGVTGLFPSNYVKM
Ans. high bin

Qu. Now give it for VCQVIAMYDYAANNEDPLSFSKGQLINVMNKDDPDWWQGEINGVTGLFPSNYVKM too.
Ans. low bin

Qu. # iterate: VCQVIAMYDYAANNEDELSFSKGQLINVMNKDDPDWWQGEINGVTGLFYSNYVKM
Ans. low bin

Qu. Please do the same for VCQVIAMYDYALNNEDELSFSKGQLINVMNKDDPDWWQGEINGVTGLFPSNYVKM as well.
Ans. low bin

Qu. Could you do the same for VCQVIAMYDYAANNEDELSFSKGQLINVMMKDDPDWWQGEINGVTGLFPSNYVKM , please?
Ans. high bin

Qu. Further, for VCQVIAMYDYAAHNEDELSFSKGQLINVMNKDDPDWWQGEINGVTGLFPSNYVKM ?
Ans. high bin

Qu. For VCQVIAMYDYAANNEDELSFSKGQLINSMNKDDPDWWQGEINGVTGLFPSNYVKM then?
Ans. low bin

Qu. Here is the next variant: VCQVIAMYDYAANNEDELSFSKTQLINVMNKDDPDWWQGEINGVTGLFPSNYVKM
Ans. low bin
